Values compiled from patent US10294202B2.

tested on: giant foxtail; assay: Test A pre-/postemergence herbicide test; format: in vivo, Setaria faberii; conditions: Preemergence, 125 g ai/ha; 0 to 100 scale where 0 is no effect and 100 is complete control
Binary label based on Plant response rating, Foxtail, Giant with cut-off 80: below gives y, not below gives n.

Completed entries (count: 3):
| MOLECULE | CATEGORY |
| --- | --- |
| CSc1cccc(C2CNC(=O)C2C(=O)Nc2ccc(F)cc2F)c1 (stereo not drawn) | y |
| O=C1NCC(c2cccc(Br)c2)C1C(=O)Nc1cccc(F)c1F (stereo not drawn) | n |
| CC1(c2ccccc2)CNC(=O)C1C(=O)Nc1ccccc1F (stereo not drawn) | y |

Decide: Plant response rating, Foxtail, Giant of O=C1NCC(c2ccc(C(F)(F)F)cc2F)C1C(=O)Nc1ccccc1F (racemic) strictly below 80? y

Decide: Plant response rating, Foxtail, Giant of O=C1NCC(c2cccc(Cl)c2)C1C(=O)Nc1cccc(F)c1F (racemic) strictly below 80? n

Decide: Plant response rating, Foxtail, Giant of O=C1NCC(c2cccc(OC(F)F)c2)C1C(=O)Nc1ccc(F)c(F)c1F (stereo not drawn) strictly below 80? n

Decide: Plant response rating, Foxtail, Giant of CC(C)(C)c1cccc(C2CNC(=O)C2C(=O)Nc2ccccc2F)c1 (stereo not drawn) strictly below 80? y

Decide: Plant response rating, Foxtail, Giant of O=C1NCC(c2cnn(CC(F)(F)F)c2)C1C(=O)Nc1cccc(F)c1F (stereo not drawn) strictly below 80? y

----------
tested on: barnyardgrass; experiment: Test B flooded paddy test; type: in vivo, Echinochloa crus-galli; conditions: 500 g ai/ha, Flood; scale of 0 to 100 where 0 is no effect and 100 is complete control
// label = Fulfilled if Plant response rating, Barnyardgrass is not less than 70, otherwise Not fulfilled

Completed entries (count: 6):
| COMPOUND | TESTED_ON | CATEGORY |
| --- | --- | --- |
| CN1CC(c2cccc(C(F)(F)F)c2)C(C(=O)Nc2ccccc2F)C1=O (centres unmarked) [Compound 277] | barnyardgrass | Fulfilled |
| O=C1NCC(c2cccc(Cl)c2)C1C(=O)Nc1cccc(F)c1F (racemic) [Compound 275] | barnyardgrass | Fulfilled |
| O=C1NCC(c2cc3ccccc3s2)C1C(=O)Nc1ccccc1C(F)(F)F (centres unmarked) [Compound 297] | barnyardgrass | Not fulfilled |
| O=C1NCC(c2cccc(C(F)(F)F)c2)C1C(=O)Nc1ccccc1Cl (centres unmarked) [Compound 312] | barnyardgrass | Fulfilled |
| O=C1NCC(c2ccc3c(c2)OC(F)(F)O3)C1C(=O)Nc1ccccc1F (racemic) [Compound 161] | barnyardgrass | Not fulfilled |
| O=C1NCC(c2cccc(OC(F)F)c2)C1C(=O)Nc1ccccc1C(F)(F)F (centres unmarked) [Compound 222] | barnyardgrass | Not fulfilled |

API: above_or_equal(metric=Plant response rating, Barnyardgrass, cutoff=70) for item O=C1NCC(c2ccc(OC(F)F)cc2)C1C(=O)Nc1ccccc1Br (centres unmarked) [Compound 225] Not fulfilled

----------
system: sedge, umbrella; test: Test C flooded paddy test; assay type: in vivo, Cyperus difformis; details: Flood, 125 g ai/ha; scale of 0 to 100 where 0 is no effect and 100 is complete control; 13 to 15 days
MEASUREMENT_TYPE: Plant response rating, Sedge, Umbrella
Give bare numbers.

Some solved entries appear below for comparison.
| COMPOUND | Plant response rating, Sedge, Umbrella |
| --- | --- |
| CC1NC(=O)C(C(=O)Nc2ccccc2F)C1c1ccc(F)c(F)c1 (mixture of isomers) [Compound 7] | 0 |
| O=C1NCC(c2ccc(C(F)(F)F)nc2)C1C(=O)Nc1cccc(F)c1F (racemic) [Compound 263] | 0 |
| O=C1NCC(c2cccc(C(F)(F)F)c2)C1C(=O)Nc1ccccc1F (racemic) [Compound 3] | 0 |
| O=C1NCC(c2ccc(Cl)cc2)C1C(=O)Nc1ccccc1F (racemic) [Compound 87] | 0 |

Dear colleague, could you please provide Plant response rating, Sedge, Umbrella for the compounds listed below?
1. O=C1NCC(c2ccc(F)cc2)C1C(=O)Nc1cccc(F)c1F (racemic) [Compound 119]
2. O=C1NCC(c2cccc(F)c2)C1C(=O)Nc1ccccc1F (racemic) [Compound 1]
3. O=C1NCC(c2cccc(OC(F)F)c2)C1C(=O)Nc1ccccc1F (stereo not drawn) [Compound 223]
4. O=C1NCC(c2cccc(C(F)(F)F)c2)C1C(=O)Nc1ccccc1Cl (stereo not drawn) [Compound 312]
5. O=C1NC[C@@H](c2ccc(F)c(F)c2)[C@@H]1C(=O)Nc1ccccc1F [Compound 102]

[0, 0, 0, 0, 0]

----------
test system: pigweed; experiment: Test A pre-/postemergence herbicide test; format: in vivo, Amaranthus retroflexus; details: Preemergence, 125 g ai/ha; 0 to 100 scale where 0 is no effect and 100 is complete control
I'd appreciate it if you could supply Plant response rating, Pigweed values for the items below.
One number for each entry.

| MOLECULE | TESTED_ON | Plant response rating, Pigweed |
| --- | --- | --- |
| Cc1cccc(NC(=O)C2C(=O)NCC2c2cccc(C(F)(F)F)c2)c1 (centres unmarked) [Compound 317] | pigweed | 0 |

Dear colleague, could you please provide Plant response rating, Pigweed for the molecules listed below?
1. O=C1NCC(c2cccc(OC(F)F)c2)C1C(=O)Nc1cccc(F)c1F (centres unmarked) [Compound 324]
2. O=C1NCC(c2cccc(C(F)(F)F)c2)C1C(=O)Nc1cccc(F)c1F (centres unmarked) [Compound 241]
3. O=C1NCC(c2cc3ccccc3s2)C1C(=O)Nc1ccccc1C(F)(F)F (centres unmarked) [Compound 297]
4. O=C1NCC(c2cccc(Oc3ccccc3)c2)C1C(=O)Nc1ccccc1Cl (centres unmarked) [Compound 334]

1: 30; 2: 0; 3: 0; 4: 0

----------
tested on: foxtail, giant; assay: Test C pre-/postemergence herbicide test; type: in vivo, Setaria faberii; settings: Preemergence, 62 g ai/ha; scale 0 to 100
MEASUREMENT_TYPE: Plant response rating, Foxtail, Giant
Give bare numbers.

Some solved entries appear below for comparison.
| MOLECULE | TESTED_ON | ENDPOINT_VALUE |
| --- | --- | --- |
| Cc1ccccc1NC(=O)C1C(=O)NCC1c1cc(F)c(F)c(F)c1 (racemic) | foxtail, giant | 90 |
| O=C1NCC(c2cccc(OC(F)(F)F)c2)C1C(=O)Nc1cccc(F)c1F (centres unmarked) | foxtail, giant | 90 |
| O=C1NCC(c2ccc(F)cc2)C1C(=O)Nc1cccc(F)c1F (racemic) | foxtail, giant | 90 |
| O=C1NCC(c2ccccc2)C1C(=O)Nc1ccccc1F (racemic) | foxtail, giant | 17 |

Then this molecule:
Record O=C1NCC(c2ccc(F)cc2)C1C(=O)Nc1ccccc1F (racemic) : what is its Plant response rating, Foxtail, Giant with foxtail, giant? 70

----------
system: bermudagrass; experiment: Test C pre-/postemergence herbicide test; assay type: in vivo, Cynodon dactylon; conditions: Preemergence, 125 g ai/ha; scale 0 to 100 (0 no effect, 100 complete control)
I'd appreciate it if you could supply Plant response rating, Bermudagrass values for the items below.
Give bare numbers.

Dear colleague, could you please provide Plant response rating, Bermudagrass for the molecules listed below?
1. O=C1NCC(c2ccc3c(c2)OC(F)(F)O3)C1C(=O)Nc1cccc(F)c1F (stereo not shown)
2. O=C1NCC(c2cccc(OC(F)(F)F)c2)C1C(=O)Nc1cccc(F)c1F (stereo not shown)
3. O=C1NCC(c2cc(F)c(F)c(F)c2)C1C(=O)Nc1ccccc1C(F)(F)F (racemic)
4. O=C1NCC(c2ccc(F)cc2)C1C(=O)Nc1ccccc1F (racemic)

50
85
70
90

----------
I'd appreciate it if you could supply Plant response rating, Barnyardgrass values for the items below.
test system: barnyardgrass; assay: Test B flooded paddy test; type: in vivo, Echinochloa crus-galli; details: 250 g ai/ha, Flood; scale of 0 to 100 where 0 is no effect and 100 is complete control
Answers are plain numbers.

| MOLECULE | TESTED_ON | Plant response rating, Barnyardgrass |
| --- | --- | --- |
| O=C1NCC(c2ccc(F)c(C(F)(F)F)c2)C1C(=O)Nc1ccccc1F (racemic) | barnyardgrass | 0 |
| O=C1NCC(c2cccc(C(F)(F)F)c2)C1C(=O)Nc1cccc(F)c1F (stereo not drawn) | barnyardgrass | 55 |
| O=C1NCC(c2cccc(OC(F)(F)F)c2)C1C(=O)Nc1cccc(F)c1F (stereo not drawn) | barnyardgrass | 40 |
| O=C1NCC(c2ccc(F)c(F)c2)C1C(=O)Nc1ccccc1 (racemic) | barnyardgrass | 0 |

Dear colleague, could you please provide Plant response rating, Barnyardgrass for the molecules listed below?
1. O=C1NCC(c2cccc(Br)c2)C1C(=O)Nc1ccccc1F (stereo not drawn)
2. O=C1NCC(c2ccc(Cl)cc2)C1C(=O)Nc1ccccc1F (racemic)
3. O=C1NCC(c2ccc(F)c(F)c2)C1C(=O)Nc1cccc2c1OC(F)(F)O2 (stereo not drawn)
4. COc1ccc(C2CNC(=O)C2C(=O)Nc2ccccc2F)cc1F (racemic)
5. O=C1NCC(c2ccc(F)c(F)c2)C1C(=O)Nc1ccc[nH]c1=O (racemic)
6. COc1cccc(NC(=O)C2C(=O)NCC2c2ccc(F)c(F)c2)n1 (stereo not drawn)
7. O=C1NCC(c2ccc3c(c2)OC(F)(F)O3)C1C(=O)Nc1cccc(F)c1F (stereo not drawn)
8. O=C1NCC(c2ccc(F)c(F)c2)C1C(=O)Nc1ccccc1Br (stereo not drawn)

[0, 60, 0, 0, 50, 0, 20, 50]
